- subject-of-test: SSA
- test: AtheNA, Ab 6.25 ug/ml
Recorded Athena reading (relative luminescence units) values for a group of binders are listed next.
Answer with the value's number alone.

CH240_4A/293i (antibody, from a related filing, V domains shown) VH: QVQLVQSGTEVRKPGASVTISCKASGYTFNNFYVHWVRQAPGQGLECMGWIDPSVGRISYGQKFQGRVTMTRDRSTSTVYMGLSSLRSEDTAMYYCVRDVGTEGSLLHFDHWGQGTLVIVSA VL: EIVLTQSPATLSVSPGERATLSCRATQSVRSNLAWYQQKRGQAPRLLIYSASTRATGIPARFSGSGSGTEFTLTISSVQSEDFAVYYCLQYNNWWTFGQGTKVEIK: 12
CH236_4A/293i (antibody, from a related filing, V domains shown) VH: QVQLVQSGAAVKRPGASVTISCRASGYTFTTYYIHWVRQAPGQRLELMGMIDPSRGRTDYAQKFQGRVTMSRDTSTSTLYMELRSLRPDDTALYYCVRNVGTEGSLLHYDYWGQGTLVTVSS VL: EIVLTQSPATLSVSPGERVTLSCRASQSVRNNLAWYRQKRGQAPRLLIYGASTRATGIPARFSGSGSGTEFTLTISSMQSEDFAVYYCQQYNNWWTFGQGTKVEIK: 44

Ask: State, in one line, measured Athena reading (relative luminescence units) of CH241 (antibody, from a related filing, V domains shown) VH: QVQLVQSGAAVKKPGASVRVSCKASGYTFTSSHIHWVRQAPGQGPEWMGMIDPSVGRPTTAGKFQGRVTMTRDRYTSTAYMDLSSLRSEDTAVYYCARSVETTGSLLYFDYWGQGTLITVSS VL: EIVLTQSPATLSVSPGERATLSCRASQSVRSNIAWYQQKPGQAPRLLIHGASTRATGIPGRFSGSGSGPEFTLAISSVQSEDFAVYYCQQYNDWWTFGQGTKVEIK
Reply: 15

Ask: Please look at this binder and report its Athena reading (relative luminescence units): CH239_4A/293i (antibody, from a related filing, V domains shown) VH: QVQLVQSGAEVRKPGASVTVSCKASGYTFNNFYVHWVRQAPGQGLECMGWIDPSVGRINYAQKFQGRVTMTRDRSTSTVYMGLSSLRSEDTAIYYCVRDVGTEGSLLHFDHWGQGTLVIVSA VL: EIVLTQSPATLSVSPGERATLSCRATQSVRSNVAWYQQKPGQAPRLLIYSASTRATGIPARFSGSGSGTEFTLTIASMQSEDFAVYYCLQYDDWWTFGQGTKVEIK
Reply: 178

Ask: Recall and state the measured Athena reading (relative luminescence units) for CH235_4A (antibody, from a related filing, V domains shown) VH: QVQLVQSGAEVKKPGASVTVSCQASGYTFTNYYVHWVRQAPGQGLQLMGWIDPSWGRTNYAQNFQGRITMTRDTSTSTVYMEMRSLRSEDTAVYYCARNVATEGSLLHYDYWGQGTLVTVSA VL: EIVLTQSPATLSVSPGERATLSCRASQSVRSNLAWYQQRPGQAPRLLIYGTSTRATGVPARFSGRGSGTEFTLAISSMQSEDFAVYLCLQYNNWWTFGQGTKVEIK .
Reply: 12
